Source listed as the supplement of paper PMC8728848.

# TARGET OR SYSTEM: GlcNAc(b1-3)Gal(b1-4)GlcNAc(b1-2)[GlcNAc(b1-3)Gal(b1-4)GlcNAc(b1-6)]Man(a1-6)[GlcNAc(b1-3)Gal(b1-4)GlcNAc(b1-2)Man(a1-3)]Man(b1-4)GlcNAc(b1-4)GlcNAc
# ASSAY OVERVIEW: glycan array binding signal (z-score within array); higher = stronger binding
# PARTICULARS: glycan notation: IUPAC condensed, linker removed
About 410 targets per protein were measured; listed, in parts, are those with the strongest signals and a random draw of the rest.
PARAMETER: glycan array binding signal (z-score)
Answers are plain numbers.

BINDER	NUMERIC READOUT
SP15308F-bth-333-19-333 (Bacteroides thetaiotaomicron) (protein) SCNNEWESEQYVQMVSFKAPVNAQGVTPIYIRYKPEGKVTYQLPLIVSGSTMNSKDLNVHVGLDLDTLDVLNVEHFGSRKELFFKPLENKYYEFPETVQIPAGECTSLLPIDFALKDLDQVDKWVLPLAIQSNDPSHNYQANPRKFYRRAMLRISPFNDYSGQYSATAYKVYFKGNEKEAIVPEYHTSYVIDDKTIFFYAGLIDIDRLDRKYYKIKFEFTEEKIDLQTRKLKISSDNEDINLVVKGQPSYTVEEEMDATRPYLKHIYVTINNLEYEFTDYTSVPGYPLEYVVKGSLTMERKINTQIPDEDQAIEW	2.85

Report glycan array binding signal (z-score) for every entry below.
1. CD34 (Homo sapiens), P28906 (protein) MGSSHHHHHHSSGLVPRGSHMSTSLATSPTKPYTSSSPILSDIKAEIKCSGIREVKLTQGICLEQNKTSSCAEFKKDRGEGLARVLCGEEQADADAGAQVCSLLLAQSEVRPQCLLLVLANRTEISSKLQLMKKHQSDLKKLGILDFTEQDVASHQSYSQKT
2. YASPKCFRYPNGVLACT [Odorranalectin (Odorrana grahami), B3TFE9_RANGR]
3. RobpsCRA (Robinia pseudoacacia) (protein) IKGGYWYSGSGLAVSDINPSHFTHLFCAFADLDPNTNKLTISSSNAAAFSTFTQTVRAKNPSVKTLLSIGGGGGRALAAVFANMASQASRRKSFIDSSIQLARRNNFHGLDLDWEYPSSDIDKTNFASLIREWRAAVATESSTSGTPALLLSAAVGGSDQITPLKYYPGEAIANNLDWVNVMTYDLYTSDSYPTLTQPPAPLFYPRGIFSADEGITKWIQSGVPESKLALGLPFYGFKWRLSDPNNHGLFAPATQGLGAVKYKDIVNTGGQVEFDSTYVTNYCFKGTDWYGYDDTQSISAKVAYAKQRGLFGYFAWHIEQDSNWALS
4. pilr alpha (protein) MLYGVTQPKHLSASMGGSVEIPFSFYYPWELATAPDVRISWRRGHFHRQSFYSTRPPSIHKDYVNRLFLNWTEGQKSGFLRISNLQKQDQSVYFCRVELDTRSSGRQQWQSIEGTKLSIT
5. Lb MiSSP8 (Laccaria bicolor) (protein) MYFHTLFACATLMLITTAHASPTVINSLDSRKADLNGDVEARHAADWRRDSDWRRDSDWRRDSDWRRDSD

Solution:
1. -0.175
2. 8.95
3. 1.5
4. 1.61
5. 0.54
